# key: entry, value: soluble fraction (log2)
experiment: soluble fraction after stress (log2 fold change); higher = more stays soluble; pooled small domains, quantitative proteomics; conditions: stress: 50 degC
Could you respond with only the numeric value?

sequence_code: HMEMGNKIKELRTKLGITQEELSKTLNVSSQAVSKWENGGLPDLELIPEIAKYFNVTTDYLFDIK
soluble fraction (log2): 0.0658
--
sequence_code: HMKTLDATQRLKLNGEGIIVFNFGKYVDQPVVEIFKKERGYFAWMMSKDFSQQVKNIITKIHNEEILGK
soluble fraction (log2): -2.76
--
sequence_code: HMEEINTAPVFKNIIEIAEYAKTKFTTVEEIPKMIEFIETANSKLDNPHDEESVNELINALSTNIRKNV
soluble fraction (log2): 0.193
--
sequence_code: HMPRYSGMFAAWLHKALARMGKSMSDSARSAFTERVELDYSSANNELQKLSLLVGDRKVITEADVMRAIG
soluble fraction (log2): -0.292
--
sequence_code: HMQPMIQIHTLANHAPVALHIKRNTQRNIIIRARDASSLNLSIPKWFSPAQLQNWLRDNEATLIRILQQAP
soluble fraction (log2): -2.49
--
sequence_code: HMAVTEVKTTAVVNMRSSDSEKADKLGKAQIGDTFRVLEQRANGWTKLTDGTQEFFIKSEYLEAIA
soluble fraction (log2): 0.0956
--
sequence_code: HMLPLGSNEYETAVIKHLASGVQDADEIQRLTGIDQTSLNTALTMLELAGTIRPLGNNHWTL
soluble fraction (log2): 0.167
--
sequence_code: HMPLTKKLETLFSLFPKYEKELKKKGVTRIHVWANYKEEYPDGIGRSQFIHYYSFWKKQVSP
soluble fraction (log2): -0.118

Please report the recorded soluble fraction (log2) for HMQNMVYVATKDIPAGGVIDQDSVSKTAISTSIDTSLYITDDDLGKIAVVNISQGQSVFSNMVGT . 0.0238

====

assay: soluble fraction after stress (log2 fold change); higher = more stays soluble; pooled small domains, quantitative proteomics; details: stress: 50 degC
# key: entry, value: soluble fraction (log2)
Could you respond with only the numeric value?

sequence_code: HMKTRNISGNHEAVWQAVRSRTQAGHPTTRAVIMDDLKAQGLNTQKFSRWLKKLVDDGSVYMDGDTIIMGK
soluble fraction (log2): -0.186
//
sequence_code: HMTKNEFLASFQNELQKRHIPDWEDVVSEYEQHFALKQADGFSEEEIAAKLGAPAELAAQFEA
soluble fraction (log2): -0.0437
//
sequence_code: HMDKINQEAIEDEAGLWLAKIDGRQLAQEEVRELIAWMRRSDFHREYLITLARQWDGMAALNKLATLFP
soluble fraction (log2): -0.976
//
sequence_code: HMISFTDLEHIEKMIENVLYTKTPLNLPPTDAKIRKIEHQIARRYGLNSESFGDEPRRFVVVYPNEERE
soluble fraction (log2): -0.625
//
sequence_code: HMVISNDEFEDYLNRATEQLVSELSSGKNPRDAVHDLALTFADQHNKSYDAYQRMADSLEARMHTL
soluble fraction (log2): 0.0885
//
sequence_code: HMEDEISLGAINVPRGSVIVTAGGARLVEGSDYTVDYYSGTVKILNKSLLDAGTPINVSLET
soluble fraction (log2): 0.0198
//
sequence_code: HMKISDLPAAQVYREIVHAWPKAAAYADLAPINNGGMQRWRDVVHEWVLRGYNPANLRGMLEWYKAGIPTR
soluble fraction (log2): -0.398
//
sequence_code: HMVNDDTIAATEAEILALLADKHRHHITELNSIRRPYEQIDAALSSLINEEKIFQEDGMLFV
soluble fraction (log2): 0.144

Please report the recorded soluble fraction (log2) for HMAKRDEIEAELPRFVATITQELAASRDVLSMIEHYKQNSGPVFSAELDVLTADMRSGSYEAALTRFEARF . 0.0338

====

# key: entry, value: soluble fraction (log2)
assay: soluble fraction after stress (log2 fold change); higher = more stays soluble; pooled small domains, quantitative proteomics; conditions: stress: 50 degC
Could you respond with only the numeric value?

sequence_code: HMLGKNEAKEYKVAYGDIGKMPALIMGLVPLPKPPVVDERLRTLYVTATPEQHREIEAIMNRI
soluble fraction (log2): 0.156

Please report the recorded soluble fraction (log2) for HMGYPGLGSIGSKPLGDLLFQSKLFVKTKREFAEFKMANNNIVWGRRTQYLVRNYPLSVMEVFL . -0.0279

Please report the recorded soluble fraction (log2) for HMPDFAENAVYGKQREDSLYAHAYKHFQLGDTTTVRAAEHLSAEIYPLGQHRPKFMFLNAVTR . 0.0766

Please report the recorded soluble fraction (log2) for HMPPQPATQNTKAQVMQLAREKELMAGEGRGANVEALEKFANEHGISLRGMTEEQAEQLVKLLMEYTP . -0.258

Please report the recorded soluble fraction (log2) for HMNIDNTWQPSEDVVEILTRSGINEDFINELIPEFIVYWTERPGTLVSYNSKFIEHVRLKWAQHSAEI . 0.0597

Please report the recorded soluble fraction (log2) for HMKPGNFILDLLRTYGQKGTSAQNLMSSSRMFNFSENLIRVTLSRLAARGLIENFERGHYRLAE . -0.333

Please report the recorded soluble fraction (log2) for HMAIEMSTITKRVTSTGEIRYRALLQIRREDVNYTESRTFSKKSLAEAWLKKREVELEANPELLHQ . -1.32

====

experiment: soluble fraction after stress (log2 fold change); higher = more stays soluble; pooled small domains, quantitative proteomics; details: stress: 50 degC
Where soluble fraction (log2) equals or exceeds -0.2, the correct label is class 1; where it does not, the label is class 0.

// known answers, use as guide
sequence_code: HMEAEGLDFAPMPGEIGKKLWQEVSKEAWAGWLKHQTMLVNENRLSFVDPAARKYLTEQTEAYFFG
cat: class 1
--
sequence_code: HMFIKVEVPDLTGMTLTEVRKALEEKNLKMGDIRPAGQTSLVAKVINQSPQAKMVVDEYSEVSIQFEE
cat: class 0
--
sequence_code: HMPTMTDIPIKIIRSRRRTLAIEVREGGEVIVRAPLYSRKAEIDAFVKAHENWIITKYNLMITKQN
cat: class 0
--
sequence_code: HMQISLDTKLINLEFSVRANNVFRENQIFTLRDLTSHSKEDLMLMTNFGKTTLYEVNKKLEEHQLKLSQ
cat: class 0
--
sequence_code: HMDDAIAEKTGGAVSSVNQRQAILDHIREAYGIELESLRSTDIERYLDDPEIPEPVKDILRDRLRGAK
cat: class 1

Check the entry HMRIQTVDYNTFISMVEDGKVDAAEIQQQENRILFSDQDQKVYKTAMVPDDDLTQRLLDAGVSTNG : does soluble fraction (log2) equal or exceed -0.2? class 1

Check the entry HMIESFQNGLVEHDQFTRPNPWVTPNFSKIEVPSILLSGKHADIDLWKHQNSIENTKKNRPDLFKNYLKKN : does soluble fraction (log2) equal or exceed -0.2? class 1

Check the entry HMNIDEIIGKKAVVIESIDNLQGTGKVRYQGMEWTARAEEENDRIEKDAEVEIIAVKGVKLIVKMK : does soluble fraction (log2) equal or exceed -0.2? class 1

Check the entry HMDKELILLWDRVKSKVWQMDIQDSQVANWFQRNYHLTVRLRDFDPPVPPDKFTAEQLASFIKDIERHT : does soluble fraction (log2) equal or exceed -0.2? class 0

Check the entry HMKLNKRQYAYQVIRSRILDGTYVPGQRIIIDQIAKEVNSSHIPVREAIHQLESEQLIDYEPNIGAIVKG : does soluble fraction (log2) equal or exceed -0.2? class 1

Check the entry HMSSVEEILQTLGGRIRTQRLAQGISQQVLADRAGLSLGAVRQLEGSGQSGLDTLVRVLFVLGIVDEL : does soluble fraction (log2) equal or exceed -0.2? class 0

Check the entry HMDFSYTVGDIDEPIDSRGNSVIMLRKLAWGSNAEKLEIRRWIIDIDSERANKGVTFLTEEGPHNLVRV : does soluble fraction (log2) equal or exceed -0.2? class 1

====

assay: soluble fraction after stress (log2 fold change); higher = more stays soluble; pooled small domains, quantitative proteomics; conditions: stress: 50 degC
# key: entry, value: soluble fraction (log2)
Could you respond with only the numeric value?

Known soluble fraction (log2) results, listed for orientation:
sequence_code: HMDDIHTFVYETETPFDPQKLDRYIGSLTAVYGQDMLRYKGILYFAGVDRRVVFQGVHMLAV
soluble fraction (log2): -0.0916
//
sequence_code: HMADGDIIPEGQRDATLASLAGSMRARGMTEAEILAALQVTNETRVRPPMALADLERIARSIGRYEPGK
soluble fraction (log2): 0.0818
//
sequence_code: HMQISDSGELEKIVLQVIEENPKPAEQVRSGNEKAIGALVGGVMKATQGRADGGEVNRLLRQHLGL
soluble fraction (log2): 0.172
//
sequence_code: HMANTVVMPNLLGKTMTEAKIELKELGIDITLKGSESSSKYSAGQIMEQNIAEGTKVEVGSSVEVTIAGS
soluble fraction (log2): -0.306
//
sequence_code: HMSEEVKSQPISILDLSTRASNGLKNEGIETIGELVKYSEDELLGLDKFGQNSLKEIKKKLEEIGLTLKEH
soluble fraction (log2): -0.0419

Please report the recorded soluble fraction (log2) for HMQIYSQEIYDAQKVLKELGLYTSDLDGLNGPGTKRALRNFQSKSGLNADGVLGPLTKSALDKGEESYITV . 0.0375

Please report the recorded soluble fraction (log2) for HMYATQLLQLEEMGFFDRAENIRALRATNGNVNAAVERL . 0.0407

Please report the recorded soluble fraction (log2) for HMEVGKRIAEIRKENRMSQEQFGQLFHVTRQTVSNWENAKSYPDLQTLVKISELFEITMDELLK . -0.511
